Each recorded value in this set is attributed to the supplement of paper PMC10065799.

Hi there, I'd appreciate the recorded phosphorylation enrichment for every entry that follows.
molecular target: Fes (UniProt P07332); assay: phosphorylation enrichment, bacterial display (enrichment ratio); higher = better substrate or ligand; peptides without Tyr show the background;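 also: 11-residue human phosphosite peptides and single-mutation variants displayed on the E. coli surface, counted by deep sequencing, each peptide's frequency after selection divided by its frequency in the unselected input library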;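 also: frequency after pTyr selection over input frequency; kinase dosed for 20-30% of maximal phosphorylation in three min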
Sequence (P07332 whole entry, looked up): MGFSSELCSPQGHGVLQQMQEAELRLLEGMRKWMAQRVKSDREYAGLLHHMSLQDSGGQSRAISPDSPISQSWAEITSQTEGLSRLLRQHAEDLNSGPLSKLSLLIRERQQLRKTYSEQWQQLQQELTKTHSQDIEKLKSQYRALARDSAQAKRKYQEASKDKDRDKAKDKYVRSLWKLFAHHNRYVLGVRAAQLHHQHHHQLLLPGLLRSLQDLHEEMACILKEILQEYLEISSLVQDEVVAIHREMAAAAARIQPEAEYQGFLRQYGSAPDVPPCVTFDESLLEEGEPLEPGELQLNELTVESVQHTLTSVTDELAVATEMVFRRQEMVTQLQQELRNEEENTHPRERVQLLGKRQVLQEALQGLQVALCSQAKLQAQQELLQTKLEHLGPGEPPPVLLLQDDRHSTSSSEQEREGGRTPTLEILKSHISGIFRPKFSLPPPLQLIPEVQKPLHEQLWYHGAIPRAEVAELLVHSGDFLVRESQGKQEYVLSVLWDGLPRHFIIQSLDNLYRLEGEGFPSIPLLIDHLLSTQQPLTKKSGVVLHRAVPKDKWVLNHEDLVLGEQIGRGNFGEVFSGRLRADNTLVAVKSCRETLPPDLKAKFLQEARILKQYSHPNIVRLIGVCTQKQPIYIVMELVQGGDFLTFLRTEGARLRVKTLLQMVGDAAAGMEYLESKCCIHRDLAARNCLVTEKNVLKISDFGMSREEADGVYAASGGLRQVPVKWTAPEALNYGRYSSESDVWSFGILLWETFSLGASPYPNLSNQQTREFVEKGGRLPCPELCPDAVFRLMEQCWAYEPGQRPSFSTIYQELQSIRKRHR
Write the value as a bare number.

// query GET /values?readout=phosphorylation enrichment&item= GGFNNYGFGSD [HNRNPH3_Y159_N163S_YF]
// result 0.762

// query GET /values?readout=phosphorylation enrichment&item= SVFNNYIQTLG [CTNND1_Y174_S171F]
// result 0.678

// query GET /values?readout=phosphorylation enrichment&item= CSHMFYGKQCC [ADAMTS16_Y1211_K1209M]
// result 1.01

// query GET /values?readout=phosphorylation enrichment&item= WQQQSYLFSGI [CTNNB1_Y30_D32Y_YF]
// result 0.928

// query GET /values?readout=phosphorylation enrichment&item= GTHCHYKAPTV [FZD9_Y569]
// result 0.79

// query GET /values?readout=phosphorylation enrichment&item= PELINCHQHNS [BTK_Y361_Y361C]
// result 1.04

// query GET /values?readout=phosphorylation enrichment&item= MKGDYYRSLAE [YWHAG_Y131_Y133S]
// result 0.738

// query GET /values?readout=phosphorylation enrichment&item= ENGPYYASYPP [GDAP2_Y488_T489A]
// result 0.735

// query GET /values?readout=phosphorylation enrichment&item= CPEARYNRSPI [PTAR1_Y42]
// result 0.859

// query GET /values?readout=phosphorylation enrichment&item= QWPGPYDRPGA [HNRNPH2_Y210_R206W]
// result 0.928

// query GET /values?readout=phosphorylation enrichment&item= ENFDDYMKDVG [FABP4_Y20_E23D]
// result 1.12

// query GET /values?readout=phosphorylation enrichment&item= YPPDGYSRHCE [CTNND1_Y213_Y217C]
// result 0.941

// query GET /values?readout=phosphorylation enrichment&item= LNPLFYSLRNK [OR5R1_Y290_I289F]
// result 0.773

// query GET /values?readout=phosphorylation enrichment&item= RRNEIYEIKVD [LGR5_Y387_H383R]
// result 1.36

// query GET /values?readout=phosphorylation enrichment&item= EPDSLYGCGRG [ATM_Y2019_G2023R]
// result 0.926

// query GET /values?readout=phosphorylation enrichment&item= AVSHRYDLGGL [QPRT_Y162_A158V]
// result 0.527

// query GET /values?readout=phosphorylation enrichment&item= IGNGYYFRVFS [MYBPC3_Y1136]
// result 1.43

// query GET /values?readout=phosphorylation enrichment&item= RFLERDIFNRE [HLA-DPB1_Y57_Y57D_YF]
// result 1.01

// query GET /values?readout=phosphorylation enrichment&item= CQASLYPSNHD [LRIG1_Y996_G993A]
// result 1.3

// query GET /values?readout=phosphorylation enrichment&item= LRIAVYHEILI [CREBBP_Y1450_T1447I]
// result 4.93

// query GET /values?readout=phosphorylation enrichment&item= EKKKFYDTKIE [CASP5_Y104_YF]
// result 0.933

// query GET /values?readout=phosphorylation enrichment&item= RAYRHYLLKQK [SCN2A_Y1919_R1918H]
// result 0.597

// query GET /values?readout=phosphorylation enrichment&item= MTRDIYRASYY [ALK_Y1278_A1274T]
// result 0.702

// query GET /values?readout=phosphorylation enrichment&item= TKGMIYGGGGG [PSME1_Y249]
// result 0.505

// query GET /values?readout=phosphorylation enrichment&item= VKMLEYLGKDV [CASP5_Y74]
// result 0.726

// query GET /values?readout=phosphorylation enrichment&item= HKNNNYEPNLF [BRCA2_Y57]
// result 0.767

// query GET /values?readout=phosphorylation enrichment&item= DERQPYVHMNG [IGF1R_Y1346_A1347V]
// result 0.81

// query GET /values?readout=phosphorylation enrichment&item= PFRSIYFSSPK [MPG_Y75_YF]
// result 0.666
